# Target Or Test System: TAOK1 (human) (UniProt Q7L7X3)
# Sequence (Q7L7X3 whole entry, looked up): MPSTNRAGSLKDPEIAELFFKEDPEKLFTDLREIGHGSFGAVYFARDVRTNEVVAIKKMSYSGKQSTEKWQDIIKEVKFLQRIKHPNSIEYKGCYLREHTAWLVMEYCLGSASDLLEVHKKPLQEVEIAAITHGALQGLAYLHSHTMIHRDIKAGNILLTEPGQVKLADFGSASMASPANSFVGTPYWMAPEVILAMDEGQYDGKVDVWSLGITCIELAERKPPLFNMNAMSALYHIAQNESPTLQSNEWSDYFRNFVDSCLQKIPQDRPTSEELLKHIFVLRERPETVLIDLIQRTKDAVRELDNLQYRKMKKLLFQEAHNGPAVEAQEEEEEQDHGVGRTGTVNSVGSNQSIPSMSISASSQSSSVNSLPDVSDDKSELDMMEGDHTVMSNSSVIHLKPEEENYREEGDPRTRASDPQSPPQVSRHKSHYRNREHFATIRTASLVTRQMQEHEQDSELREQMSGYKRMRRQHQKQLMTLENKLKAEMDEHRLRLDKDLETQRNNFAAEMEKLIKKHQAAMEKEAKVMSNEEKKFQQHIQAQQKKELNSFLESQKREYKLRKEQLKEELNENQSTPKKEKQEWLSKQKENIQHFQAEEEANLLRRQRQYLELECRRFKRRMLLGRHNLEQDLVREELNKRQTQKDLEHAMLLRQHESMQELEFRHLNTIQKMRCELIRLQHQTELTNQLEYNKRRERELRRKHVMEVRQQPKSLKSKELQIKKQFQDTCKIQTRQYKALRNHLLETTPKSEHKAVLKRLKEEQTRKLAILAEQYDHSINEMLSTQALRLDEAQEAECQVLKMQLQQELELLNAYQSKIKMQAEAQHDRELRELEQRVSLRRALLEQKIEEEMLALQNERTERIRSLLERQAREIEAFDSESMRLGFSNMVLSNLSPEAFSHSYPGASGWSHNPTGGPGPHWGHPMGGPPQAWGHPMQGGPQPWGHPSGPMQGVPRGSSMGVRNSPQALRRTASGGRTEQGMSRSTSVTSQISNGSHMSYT
# Protocol Description: KINOMEscan competition binding
# Study Conditions: compound 10.0 µM

[
  {
    "Molecule": "COc1cc2ncnc(Nc3cccc(Cl)c3)c2cc1OC",
    "kinase still bound, per cent of control / %": 38
  },
  {
    "Molecule": "COc1cc(N2CCC(C(N)=O)CC2)ccc1Nc1nc(N)c(Cl)c(Nc2ccccc2S(=O)(=O)C(C)C)n1",
    "kinase still bound, per cent of control / %": 100
  },
  {
    "Molecule": "N#Cc1cc(-c2ccnc(Nc3ccc(-n4cnc(-c5cccnc5)n4)cc3)n2)cc(N2CCOCC2)c1",
    "kinase still bound, per cent of control / %": 20
  },
  {
    "Molecule": "CCN1CCN(Cc2ccc(NC(=O)c3ccc(C)c(/C=C/c4cnc5[nH]ccc5c4OC)c3)cc2C(F)(F)F)CC1",
    "kinase still bound, per cent of control / %": 0.75
  },
  {
    "Molecule": "CCOc1cc(N2CCC(O)CC2)ccc1Nc1ncc2c(n1)N(C)c1ccccc1C(=O)N2C",
    "kinase still bound, per cent of control / %": 100
  },
  {
    "Molecule": "Cc1cn(-c2cc(C(=O)Nc3ccc(C)c(NC(=O)c4ccno4)c3)cc(C(F)(F)F)c2)cn1",
    "kinase still bound, per cent of control / %": 100
  },
  {
    "Molecule": "CC1=C(C(=O)Nc2cc3cn[nH]c3cc2F)C(c2ccc(C(F)(F)F)cc2)CC(=O)N1 (stereo not drawn)",
    "kinase still bound, per cent of control / %": 53
  },
  {
    "Molecule": "COc1cc(C)c(Sc2cnc(NC(=O)c3ccc(CNC(C)C(C)C)cc3)s2)cc1C(=O)N1CCN(C(C)=O)CC1 (stereo not drawn)",
    "kinase still bound, per cent of control / %": 16
  }
]

----------
# Target Or Test System: TEK (human) (UniProt Q02763)
# Sequence (Q02763 whole entry, looked up): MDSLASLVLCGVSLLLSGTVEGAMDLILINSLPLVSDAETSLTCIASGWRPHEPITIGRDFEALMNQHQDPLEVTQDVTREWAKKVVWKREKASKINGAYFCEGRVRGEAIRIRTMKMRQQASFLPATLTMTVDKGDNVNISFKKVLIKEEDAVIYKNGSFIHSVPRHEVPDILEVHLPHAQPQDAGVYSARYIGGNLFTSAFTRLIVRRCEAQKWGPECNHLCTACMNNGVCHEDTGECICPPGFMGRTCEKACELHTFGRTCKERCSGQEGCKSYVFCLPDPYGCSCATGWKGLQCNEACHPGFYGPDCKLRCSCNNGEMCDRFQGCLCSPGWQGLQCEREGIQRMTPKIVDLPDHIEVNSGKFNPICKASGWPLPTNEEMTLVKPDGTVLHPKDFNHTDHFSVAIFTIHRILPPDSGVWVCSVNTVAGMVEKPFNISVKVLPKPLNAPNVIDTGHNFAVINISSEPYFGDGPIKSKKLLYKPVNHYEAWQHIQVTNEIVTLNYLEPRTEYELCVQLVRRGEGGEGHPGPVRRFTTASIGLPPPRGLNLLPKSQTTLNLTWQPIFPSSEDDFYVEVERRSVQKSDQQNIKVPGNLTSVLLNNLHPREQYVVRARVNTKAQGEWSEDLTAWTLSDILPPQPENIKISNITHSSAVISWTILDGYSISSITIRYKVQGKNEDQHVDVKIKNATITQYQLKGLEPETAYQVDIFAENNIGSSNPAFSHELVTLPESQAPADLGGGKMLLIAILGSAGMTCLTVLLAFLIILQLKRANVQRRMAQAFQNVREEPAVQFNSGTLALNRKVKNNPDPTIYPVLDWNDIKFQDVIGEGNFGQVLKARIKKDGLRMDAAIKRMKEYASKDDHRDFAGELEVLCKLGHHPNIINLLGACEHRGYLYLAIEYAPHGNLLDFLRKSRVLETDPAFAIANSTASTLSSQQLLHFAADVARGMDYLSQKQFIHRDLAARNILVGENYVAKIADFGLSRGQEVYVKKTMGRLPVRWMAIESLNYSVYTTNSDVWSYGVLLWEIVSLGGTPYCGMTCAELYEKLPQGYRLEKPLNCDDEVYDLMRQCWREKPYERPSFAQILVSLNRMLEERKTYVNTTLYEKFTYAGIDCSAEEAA
# Protocol Description: KINOMEscan competition binding
# Study Conditions: compound 10.0 µM
As shown below, each of these molecules has a reported kinase still bound, per cent of control value.

[
  {
    "Molecule": "N#Cc1cc(-c2ccnc(Nc3ccc(-n4cnc(-c5cccnc5)n4)cc3)n2)cc(N2CCOCC2)c1",
    "kinase still bound, per cent of control": "67%"
  },
  {
    "Molecule": "CCc1nc(-c2cccc(C)c2)c(-c2ccnc(NC(=O)c3ccccc3)c2)s1",
    "kinase still bound, per cent of control": "94%"
  },
  {
    "Molecule": "C=CC(=O)Nc1ccc(C(=O)c2sc(Nc3ccc(N4CCN(C)CC4)cc3OC)nc2N)cc1",
    "kinase still bound, per cent of control": "89%"
  },
  {
    "Molecule": "COc1cc2ncnc(Nc3cccc(Cl)c3)c2cc1OC",
    "kinase still bound, per cent of control": "97%"
  },
  {
    "Molecule": "CNC(=O)Nc1ccc(-c2nc(N3CC4CCC(C3)O4)c3cnn(C4CCC5(CC4)OCCO5)c3n2)cc1",
    "kinase still bound, per cent of control": "100%"
  },
  {
    "Molecule": "COc1cc(C)c(Sc2cnc(NC(=O)c3ccc(CNC(C)C(C)C)cc3)s2)cc1C(=O)N1CCN(C(C)=O)CC1 (centres undefined)",
    "kinase still bound, per cent of control": "29%"
  },
  {
    "Molecule": "N#C/C(=C1/Nc2ccccc2S1)c1ccnc(NCCc2cccnc2)n1",
    "kinase still bound, per cent of control": "100%"
  },
  {
    "Molecule": "CC1=C(C(=O)Nc2cc3cn[nH]c3cc2F)C(c2ccc(C(F)(F)F)cc2)CC(=O)N1 (centres undefined)",
    "kinase still bound, per cent of control": "83%"
  },
  {
    "Molecule": "COc1cc2c(Nc3ccc(NC(=O)c4ccccc4)cc3)ncnc2cc1OCCCN1CCOCC1",
    "kinase still bound, per cent of control": "33%"
  }
]

Reference source for all entries: the kinase profiling compilation of Christmann-Franck et al. (2016)
